- System: HIV-IIIb
- experimentDescription: Test A: Antiviral Assays in MT4 Cells
- Type: cell-based
- cond: Human immunodeficiency virus 1, IIIB, MT4, 120 h, Table II; MT-4 cells infected with HIV-IIIb, 5 days incubation, CellTiter-Glo readout
pEC50: −log10 of the molar value.
Quick reference: pEC50 of the listed items.

>  <compound>
COc1ncc(-c2ccc3c(-c4ccc5c6c(ccnc46)CCO5)c([C@H](OC(C)(C)C)C(=O)O)c(C)cc3c2)c(O)n1 (atropisomer, axis not shown)

>  <pEC50>
7.23

$$$$
>  <compound>
Cc1cc2cc(-c3cnc(N(C)C)nc3)ccc2c(-c2ccc3c4c(ccnc24)CCO3)c1[C@H](OC(C)(C)C)C(=O)O (atropisomer, axis not shown)

>  <pEC50>
7.98

$$$$
>  <compound>
Cc1c([C@H](OC(C)(C)C)C(=O)O)c(-c2ccc3c4c(ccnc24)CCO3)c2ccccc2c1N (atropisomer, axis not shown)

>  <pEC50>
8.10

$$$$
>  <compound>
Cc1cc2c(C)c(-c3cnc(N4CCN(C)CC4)nc3)ccc2c(-c2ccc3c4c(ccnc24)CCO3)c1[C@H](OC(C)(C)C)C(=O)O (atropisomer, axis not shown)

>  <pEC50>
8.37

$$$$
>  <compound>
Cc1cc2ccccc2c(-c2ccc3c4c(ccnc24)CCO3)c1[C@@H](OC(C)(CF)CF)C(=O)O (atropisomer, axis not shown)

>  <pEC50>
5.53

$$$$

---

- Tested on: HIV-IIIb
- experimentDescription: Test A: Antiviral Assays in MT4 Cells
- Format: cell-based
- cond: Table II; MT-4 cells infected with HIV-IIIb, 5 days incubation, CellTiter-Glo readout
pEC50: −log10 of the molar value.
Quick reference: pEC50 of the listed items.

>  <molecule>
Cc1cc2c(C)c(-c3cnc(N)nc3)ccc2c(-c2ccc3c4c(ccnc24)CCO3)c1[C@H](OC(C)(C)C)C(=O)O (atropisomer, axis not shown) [Example 75]

>  <pEC50>
8.16

$$$$
>  <molecule>
CC(C)(C)O[C@H](C(=O)O)c1c2c(c3ccccc3c1-c1ccc3c4c(ccnc14)CCO3)OCC2 (atropisomer, axis not shown) [Example 78]

>  <pEC50>
7.34

$$$$
>  <molecule>
CC(C)(C)O[C@H](C(=O)O)c1c2c(c3ccccc3c1-c1ccc3c4c(ccnc14)CCO3)CCC2 (atropisomer, axis not shown) [Example 34]

>  <pEC50>
7.22

$$$$

---

- Tested on: HIV-IIIb
- experimentDescription: Test A: Antiviral Assays in MT4 Cells
- Format: cell-based
- cond: Human immunodeficiency virus 1, IIIB, MT4, 120 h, Table II; MT-4 cells infected with HIV-IIIb, 5 days incubation, CellTiter-Glo readout
pEC50: −log10 of the molar value.
Quick reference: pEC50 of the listed items.

>  <molecule>
Cc1cc2cc(-c3cnc(N4CCOCC4)nc3)ccc2c(-c2ccc3c4c(ccnc24)CCO3)c1[C@H](OC(C)(C)C)C(=O)O (atropisomer, axis not shown)

>  <pEC50>
7.77

$$$$
>  <molecule>
COc1ncc(-c2ccc3c(-c4ccc5c6c(ccnc46)CCO5)c([C@H](OC(C)(C)C)C(=O)O)c(C)cc3c2)c(OC)n1 (atropisomer, axis not shown)

>  <pEC50>
7.86

$$$$
>  <molecule>
Cc1cc2ccccc2c(-c2ccc3c4c(ccnc24)CCO3)c1C(OC(C)(CF)CF)C(=O)O (centres unmarked)

>  <pEC50>
7.39

$$$$
>  <molecule>
Cc1cc2ccccc2c(-c2ccc3c4c(ccnc24)CCO3)c1[C@H](OC(C)(CF)CF)C(=O)O (atropisomer, axis not shown)

>  <pEC50>
7.81

$$$$
>  <molecule>
COc1ncc(-c2ccc3c(-c4ccc5c6c(ccnc46)CCO5)c([C@H](OC(C)(C)C)C(=O)O)c(C)cc3c2)cn1 (atropisomer, axis not shown)

>  <pEC50>
7.91

$$$$

---

Quick reference: EC50 of the listed items.
- Tested on: HIV-IIIb
- experimentDescription: Test A: Antiviral Assays in MT4 Cells
- Type: cell-based
- cond: Table II; MT-4 cells infected with HIV-IIIb, 5 days incubation, CellTiter-Glo readout
- Description: The antiviral properties of a compound disclosed herein may be determined using Test A described below. Test A: Antiviral Assays in MT4 Cells […] Assay plates were then incubated in a 37° C. incubator. […] Cell lysis was carried out by incubating at room temperature for 2-3 min and then chemiluminescence was read using the Envision reader (PerkinElmer).

>  <compound>
Cc1cc2cc(-c3c(C)ncnc3C)ccc2c(-c2ccc3c4c(ccnc24)CCO3)c1[C@H](OC(C)(C)C)C(=O)O (atropisomer, axis not shown) [Example 58]

>  <EC50, nM>
7760

$$$$
>  <compound>
Cc1c([C@H](OC(C)(C)C)C(=O)O)c(-c2ccc3c4c(ccnc24)CCO3)c2ccccc2c1C(F)F (atropisomer, axis not shown) [Example 87]

>  <EC50, nM>
1310

$$$$
>  <compound>
Cc1cc2ccccc2c(-c2ccc3c4c(ccnc24)CCO3)c1[C@H](OC(C)(C)CCF)C(=O)O (atropisomer, axis not shown) [Example 97]

>  <EC50, nM>
43

$$$$
>  <compound>
Cc1c([C@H](OC(C)(C)C)C(=O)O)c(-c2ccc3c4c(ccnc24)CCO3)c2ccccc2c1C(F)F (atropisomer, axis not shown) [Example 86]

>  <EC50, nM>
131

$$$$
>  <compound>
Cc1cc2cc(C#Cc3cncnc3)ccc2c(-c2ccc3c4c(ccnc24)CCO3)c1[C@H](OC(C)(C)C)C(=O)O (atropisomer, axis not shown) [Example 43]

>  <EC50, nM>
121

$$$$
>  <compound>
Cc1cc2cccc(F)c2c(-c2ccc3c4c(ccnc24)CCO3)c1[C@H](OC(C)(C)C)C(=O)O (atropisomer, axis not shown) [Example 69]

>  <EC50, nM>
11.3

$$$$
>  <compound>
Cc1cc2cc(-c3cncnc3C)ccc2c(-c2ccc3c4c(ccnc24)CCO3)c1[C@H](OC(C)(C)C)C(=O)O (atropisomer, axis not shown) [Example 57]

>  <EC50, nM>
10000

$$$$
>  <compound>
Cc1cc2cc(-c3cncnc3N)ccc2c(-c2ccc3c4c(ccnc24)CCO3)c1[C@H](OC(C)(C)C)C(=O)O (atropisomer, axis not shown) [Example 53]

>  <EC50, nM>
74.2

$$$$
>  <compound>
Cc1cc2cc(-c3cnc(-c4cncnc4)nc3)ccc2c(-c2ccc3c4c(ccnc24)CCO3)c1[C@H](OC(C)(C)C)C(=O)O (atropisomer, axis not shown) [Example 39]

>  <EC50, nM>
8680

$$$$
>  <compound>
CC(C)(C)O[C@H](C(=O)O)c1c2c(c3ccccc3c1-c1ccc3c4c(ccnc14)CCO3)OCC2 (atropisomer, axis not shown) [Example 79]

>  <EC50, nM>
9910

$$$$
>  <compound>
Cc1cc2cc(-c3ccc4c(cnn4C)c3)ccc2c(-c2ccc3c4c(ccnc24)CCO3)c1[C@H](OC(C)(C)C)C(=O)O (atropisomer, axis not shown) [Example 45]

>  <EC50, nM>
354

$$$$
>  <compound>
Cc1cc2cc(-c3cnc(-c4ccccc4)nc3)ccc2c(-c2ccc3c4c(ccnc24)CCO3)c1[C@H](OC(C)(C)C)C(=O)O (atropisomer, axis not shown) [Example 37]

>  <EC50, nM>
4450

$$$$
>  <compound>
Cc1cc2c(C)c(-c3cnc(N(C)C)nc3)ccc2c(-c2ccc3c4c(ccnc24)CCO3)c1[C@H](OC(C)(C)C)C(=O)O (atropisomer, axis not shown) [Example 72]

>  <EC50, nM>
7020

$$$$
>  <compound>
Cc1cc2cc(-c3cncnc3C)ccc2c(-c2ccc3c4c(ccnc24)CCO3)c1[C@H](OC(C)(C)C)C(=O)O (atropisomer, axis not shown) [Example 56]

>  <EC50, nM>
30.5

$$$$
